System: rat pheochromocytoma cells, treated as neuronal cells (PC12)
experimental.details: Cytotoxicity, cellular viability (CCK-8/WST-8) on PC12
Format: cell-based
condition.info: rat, 48 h, 100 μM
Kindly supply the reported viability of the cells as a percentage of the untreated cells values for the records listed here.
Numeric only. Scale: %

Input line: Data request, read-out viability of the cells as a percentage of the untreated cells, for NCC(N)CCC(=O)NCCCn1cccc(O)c1=O (stereo not shown) [Compound 37c]
Output line: 94

Input line: Also NCC(N)CCC(=O)N1CCN(C(=O)c2cc(O)c(O)c(O)c2)CC1 (stereo not shown) [Compound 30a] , if possible.
Output line: 113

Input line: And for NCC(N)CCCNC(=O)CCn1cccc(O)c1=O (stereo not shown) [Compound 37a] ?
Output line: 99

Input line: Next compound up: COc1cc(/C=C/C(=O)NCCCCC(N)CN)ccc1O (stereo not shown) [Compound 29b]
Output line: 97

Input line: What would you report for NCC(N)CCCCNC(=O)CCn1cccc(O)c1=O (stereo not shown) [Compound 37b] ?
Output line: 107

Input line: What about NCC(N)CCCCNC(=O)c1cc(O)c(O)c(O)c1 (stereo not shown) [Compound 30b] ?
Output line: 67

Input line: How about this compound: COc1cc(/C=C/C(=O)N2CCN(C(=O)CCC(N)CN)CC2)ccc1O (stereo not shown) [Compound 29a]
Output line: 87

---

experimental.details: ORACFL test (Oxygen Radical Absorbance Capacity) using fluorescein/AAPH
Format: physicochemical
condition.info: compounds at 10 μM
readout.label: antioxidant capacity (ORACFL), in words

Input line: Reported antioxidant capacity (ORACFL), in words, molecule NCC(N)CCCCNC(=O)c1cc(O)c(O)c(O)c1 (stereo not shown) [Compound 30b] : ____
Output line: most active

Input line: How about NCC(N)CCC(=O)NCCCn1cccc(O)c1=O (stereo not shown) [Compound 37c] ?
Output line: most active

---

Tested on: murine endothelial brain cells (bEnd.3)
experimental.details: Cytotoxicity, cellular viability (CCK-8/WST-8) on bEnd.3
Assay type: cell-based
condition.info: mouse, 48 h, 100 μM
readout.label: viability of the cells as a percentage of the untreated cells (%)
Please give a number only; it is taken to be in %.

Input line: Param readout = viability of the cells as a percentage of the untreated cells; param system = murine endothelial brain cells (bEnd.3); param query = COc1cc(/C=C/C(=O)NCCCCC(N)CN)ccc1O (stereo not shown) [Compound 29b] ; response: value
Output line: 90

Input line: Check NCC(N)CCC(=O)NCCCn1cccc(O)c1=O (stereo not shown) [Compound 37c] too.
Output line: 84

Input line: Moving on to the next compound: NCC(N)CCCCNC(=O)c1cc(O)c(O)c(O)c1 (stereo not shown) [Compound 30b]
Output line: 87

Input line: Then NCC(N)CCCNC(=O)CCn1cccc(O)c1=O (stereo not shown) [Compound 37a] ?
Output line: 93

Input line: How about this compound: NCC(N)CCC(=O)N1CCN(C(=O)c2cc(O)c(O)c(O)c2)CC1 (stereo not shown) [Compound 30a]
Output line: 108

Input line: // same read-out, input: COc1cc(/C=C/C(=O)N2CCN(C(=O)CCC(N)CN)CC2)ccc1O (stereo not shown) [Compound 29a]
Output line: 83

Input line: Ok, now NCC(N)CCCCNC(=O)CCn1cccc(O)c1=O (stereo not shown) [Compound 37b]
Output line: 100

---

Test system: rat pheochromocytoma cells, treated as neuronal cells (PC12)
experimental.details: Cytotoxicity, cellular viability (CCK-8/WST-8) on PC12
Format: cell-based
condition.info: rat, 24 h, 100 μM
readout.label: viability of the cells as a percentage of the untreated cells

Input line: Give viability of the cells as a percentage of the untreated cells (rat pheochromocytoma cells, treated as neuronal cells (PC12)) of the following molecule: NCC(N)CCC(=O)N1CCN(C(=O)c2cc(O)c(O)c(O)c2)CC1 (stereo not shown) [Compound 30a]
Output line: 140%

Input line: Another: NCC(N)CCCCNC(=O)CCn1cccc(O)c1=O (stereo not shown) [Compound 37b]
Output line: 124%

Input line: Input COc1cc(/C=C/C(=O)NCCCCC(N)CN)ccc1O (stereo not shown) [Compound 29b]
Output line: 112%

Input line: Now try NCC(N)CCCNC(=O)CCn1cccc(O)c1=O (stereo not shown) [Compound 37a] .
Output line: 112%

Input line: Note, next up: NCC(N)CCC(=O)NCCCn1cccc(O)c1=O (stereo not shown) [Compound 37c]
Output line: 102%

Input line: Next entry: NCC(N)CCCCNC(=O)c1cc(O)c(O)c(O)c1 (stereo not shown) [Compound 30b]
Output line: 82%

Input line: What do you get for COc1cc(/C=C/C(=O)N2CCN(C(=O)CCC(N)CN)CC2)ccc1O (stereo not shown) [Compound 29a] ?
Output line: 120%

---

Test system: human fibroblasts (MRC-5)
experimental.details: Cytotoxicity, cellular viability (CCK-8/WST-8) on MRC-5
Format: cell-based
condition.info: MRC-5, 100 μM, 48 h of treatment
readout.label: viability of the cells as a percentage of the untreated cells (%)
Report the value in % with no unit label.

Input line: I would be grateful if you could share the reported viability of the cells as a percentage of the untreated cells for NCC(N)CCCCNC(=O)c1cc(O)c(O)c(O)c1 (centres unmarked) [Compound 30b] .
Output line: 100

Input line: How about this compound: Cl.Cl.NCC(N)C(=O)N1CCNCC1 (centres unmarked) [Dap-Pip, reference compound]
Output line: 111

Input line: Thanks! And NCC(N)CCCNC(=O)CCn1cccc(O)c1=O (centres unmarked) [Compound 37a] ?
Output line: 105

Input line: Same thing, different compound: NCC(N)CCC(=O)N1CCN(C(=O)c2cc(O)c(O)c(O)c2)CC1 (centres unmarked) [Compound 30a]
Output line: 103

Input line: What do you get for COc1cc(/C=C/C(=O)N2CCN(C(=O)CCC(N)CN)CC2)ccc1O (centres unmarked) [Compound 29a] ?
Output line: 103

Input line: Another compound to check: COc1cc(/C=C/C(=O)NCCCCC(N)CN)ccc1O (centres unmarked) [Compound 29b]
Output line: 100

Input line: Also, NCC(N)CCCCNC(=O)CCn1cccc(O)c1=O (centres unmarked) [Compound 37b] please.
Output line: 101

Input line: Next record, please: NCC(N)CCC(=O)NCCCn1cccc(O)c1=O (centres unmarked) [Compound 37c]
Output line: 90

---

Field: viability of the cells as a percentage of the untreated cells. Provide a value for each of the molecules that follow.
Test system: human fibroblasts (MRC-5)
experimental.details: Cytotoxicity, cellular viability (CCK-8/WST-8) on MRC-5
Format: cell-based
condition.info: MRC-5, 10 μM, 24 h of treatment
Form entry: value (%) — number only.

Input line: Query (molecule): NCC(N)CCC(=O)NCCCn1cccc(O)c1=O (centres unmarked) [Compound 37c] ; field requested: viability of the cells as a percentage of the untreated cells
Output line: 97

Input line: Record: NCC(N)CCCCNC(=O)CCn1cccc(O)c1=O (centres unmarked) [Compound 37b]
Output line: 113

Input line: COc1cc(/C=C/C(=O)N2CCN(C(=O)CCC(N)CN)CC2)ccc1O (centres unmarked) [Compound 29a] ?
Output line: 103

Input line: Can you handle Cl.Cl.NCC(N)C(=O)N1CCNCC1 (centres unmarked) [Dap-Pip, reference compound] next?
Output line: 125

Input line: Now this one: NCC(N)CCCCNC(=O)c1cc(O)c(O)c(O)c1 (centres unmarked) [Compound 30b]
Output line: 98

Input line: One more molecule: NCC(N)CCC(=O)N1CCN(C(=O)c2cc(O)c(O)c(O)c2)CC1 (centres unmarked) [Compound 30a]
Output line: 115

Input line: Try the molecule COc1cc(/C=C/C(=O)NCCCCC(N)CN)ccc1O (centres unmarked) [Compound 29b]
Output line: 106

Input line: Try this molecule too: NCC(N)CCCNC(=O)CCn1cccc(O)c1=O (centres unmarked) [Compound 37a]
Output line: 112

---

Test system: murine endothelial brain cells (bEnd.3)
experimental.details: Cytotoxicity, cellular viability (CCK-8/WST-8) on bEnd.3
Type: cell-based
condition.info: mouse, 24 h, 100 μM
Method: The cellular viability is evaluated by a colorimetric method based on the detection of the conversion of a salt of the tetrazolium (WST-8) by the metabolically active cells (CCK-8 kit, Sigma, Lyons, France) (Molecules, 2014, 19(8), 12048-12064; J. Pharmacol. Toxicol. Methods., 2007, 56(1), 58-62). […] After an incubation for 1 h at 37° C., the absorbance of the formazan is measured at 450 nm. The absorbance is directly proportional to the number of living cells. […]
readout.label: viability of the cells as a percentage of the untreated cells (%)
Quick reminder: number only, in %, skip the unit.

Input line: Which viability of the cells as a percentage of the untreated cells value belongs to NCC(N)CCCCNC(=O)CCn1cccc(O)c1=O (stereo not shown) [Compound 37b] ?
Output line: 115

Input line: Same question, NCC(N)CCCCNC(=O)c1cc(O)c(O)c(O)c1 (stereo not shown) [Compound 30b] this time
Output line: 99

Input line: Again, but for NCC(N)CCC(=O)N1CCN(C(=O)c2cc(O)c(O)c(O)c2)CC1 (stereo not shown) [Compound 30a]
Output line: 96

Input line: // repeat for COc1cc(/C=C/C(=O)NCCCCC(N)CN)ccc1O (stereo not shown) [Compound 29b] and report
Output line: 86

Input line: What about this compound? COc1cc(/C=C/C(=O)N2CCN(C(=O)CCC(N)CN)CC2)ccc1O (stereo not shown) [Compound 29a]
Output line: 87

Input line: Moving on to the next compound: NCC(N)CCC(=O)NCCCn1cccc(O)c1=O (stereo not shown) [Compound 37c]
Output line: 85

Input line: Entry to check: NCC(N)CCCNC(=O)CCn1cccc(O)c1=O (stereo not shown) [Compound 37a]
Output line: 103
